# Method description: Ability (27 umol/kg) tested on mortality of non-diseased CD2F1 mice at day 8 (n=8)
# Type: ADME
# Test settings: CD2F1, mouse, in vivo
Parameter: mortality at 8 day

[[record]]
structure_string = "Nc1ccn([C@@H]2O[C@H](CO)[C@@H](O)C2(F)F)c(=O)n1"
parameter = "mortality at 8 day"
observed_value = "100%"


----------
# Method description: Ability (36 umol/kg) tested on mortality of non-diseased CD2F1 mice at day 8 (n=8)
# Assay type: ADME
# Test settings: CD2F1, mouse, in vivo
Parameter: mortality at 8 day (%)

[[record]]
structure_string = "Nc1ccn([C@@H]2O[C@H](CO)[C@@H](O)C2(F)F)c(=O)n1"
result_unit = "%"
observed_value = 100


----------
# Method description: Ability (18 umol/kg) tested on mortality of non-diseased CD2F1 mice at day 8 (n=8)
# Type: ADME
# Test settings: CD2F1, mouse, in vivo
Parameter: mortality at 8 day (%)

[[record]]
compound = "Nc1ccn([C@@H]2O[C@H](CO)[C@@H](O)C2(F)F)c(=O)n1 [GEMCITABINE]"
result_unit = "%"
observed_value = 0

